Tested on: NCI-H522 lung
Experiment: NCI-60 one-dose screen, 48 h
Settings: 10 µM unless noted
Compounds without any hit were thinned out: in the full panel of roughly 83,000, 20% have a hit. Calls of active or inactive are those of the source. How the source made its calls: active means growth percent below 10; inactive means the rest.
Classes used: active, inactive

{"columns": ["Compound", "Label"],
 "data": [
  ["COc1ccc(N2C(=O)C(Oc3ccccc3)C2c2ccc(C)cc2)cc1 (stereo not given)", "inactive"],
  ["N#Cc1ccc(NC(=O)c2sc3nc4c(cc3c2N)C(=O)CCC4)cc1", "inactive"],
  ["Oc1ccc(CCl)c2cccnc12", "inactive"],
  ["CCOC(=O)Cn1c(C)c(/C=N/NC(=O)c2cc3c(ccc4ccccc43)o2)c2ccccc21", "active"],
  ["COc1ccc(-c2nn(C(=O)c3cc(OC)c(OC)c(OC)c3)c3cc(N)ccc23)cc1", "active"],
  ["Cc1c(C(=O)N[C@@H](Cc2ccccc2)C(=O)C(=O)NCc2ccc(F)cc2)[nH]c2ccccc2c1=O", "inactive"],
  ["O=C(N/N=C/[C@H](O)[C@H](O)[C@H](O)CO)c1ccc(NC(=O)c2cccnc2)cc1", "inactive"],
  ["CCc1ccc2nc(NC(=O)Cc3csc(NC(=O)c4ccco4)n3)sc2c1", "inactive"],
  ["Cc1ncc(C(=O)Nc2ccc(CN3CCN(C)CC3)c(C(F)(F)F)c2)cc1C#Cc1ccc(N)nc1", "active"],
  ["COc1ccc(C2C(N)=NNC2c2cccc(O)c2)cc1 (stereo not given)", "inactive"]
]}
